Give pIC50 for every item shown.
# System: MKN-45
# MEASUREMENT PROTOCOL: Cytotoxicity against human MKN45 cells after 1 hr by Western blotting analysis
# RECORDED CONDITIONS: MKN-45, 1 h
Numbers only, as −log10 of the molar value.

Worked cases, pIC50 given:
COMPOUND	MEAS VALUE
CC(C)(C)[Si](C)(C)O[C@H]1CC[C@H](n2cc(-c3ccc4cn(Cc5ccc6ncccc6c5)nc4c3)cn2)CC1	2.89
OCCn1cc(-c2ccc3cnn(Cc4ccc5ncccc5c4)c3c2)cn1	5.17
OCCn1cc(-c2ccc3cn(Cc4ccc5ncccc5c4)nc3c2)cn1	3.96
CC(C)(C)[Si](C)(C)O[C@H]1CC[C@H](n2cc(-c3ccc4cnn(Cc5ccc6ncccc6c5)c4c3)cn2)CC1	4.96
Cn1cc(-c2ccc3cnn(Cc4ccc5ncccc5c4)c3c2)cn1	4.89
O[C@H]1CC[C@H](n2cc(-c3ccc4cn(Cc5ccc6ncccc6c5)nc4c3)cn2)CC1	4.87
c1cnc2ccc(Cn3cc4ccc(-c5cnn(CCOC6CCCCO6)c5)cc4n3)cc2c1 (stereo not given)	4.92
O[C@H]1CC[C@H](n2cc(-c3ccc4cnn(Cc5ccc6ncccc6c5)c4c3)cn2)CC1	5.26
Cn1cc(-c2ccc3cn(Cc4ccc5ncccc5c4)nc3c2)cn1	3.98

Let us move to another entry and its pIC50.
Entry c1cnc2ccc(Cn3ncc4ccc(-c5cnn(CCOC6CCCCO6)c5)cc43)cc2c1 (stereo not given) : pIC50 on MKN-45 = 4.85
